Provide the recorded Stability for the entries that follow.
Species on record: Rattus norvegicus
Protocol: In vitro stability in rat hepatocytes relative to that of PNU-93385.
Format: functional
Assay Conditions: Hepatocyte
Give bare numbers, in %.

Known results for compounds:
CCCN1CC[C@H]2c3c(cccc3C(N)=O)CC[C@H]21
100
COc1cc2c(cc1OC)CC(N1CCCCCC1)C2
32
COc1cc2c(cc1OC)CC(N(C)C)C2
59
CCCCN(CCCC)C1Cc2cc(OC)c(OC)cc2C1
13

Need Stability for each of these compounds.
1. COc1cc2c(cc1OC)CC(N(CC1CC1)CC1CC1)C2
2. CCCN(CCc1ccc(OC)cc1)C1Cc2cc(OC)c(OC)cc2C1
3. CCCN(CCCc1ccccc1)C1Cc2cc(OC)c(OC)cc2C1
4. CCCN(CCC)C1Cc2cc(OC)c(OC)cc2C1 [PNU-99194A]
5. CCCN(CCc1ccccc1)C1Cc2cc(OC)c(OC)cc2C1
6. COc1cc2c(cc1OC)CC(N1CCOCC1)C2
7. CCCN(CC)C1Cc2cc(OC)c(OC)cc2C1

Response line:
1. 22
2. 53
3. 67
4. 38
5. 12
6. 41
7. 42

Prompt line: Entry `CCCN(CC1CC1)C1Cc2cc(OC)c(OC)cc2C1` has what Stability?
Response line: 23
